Attribution: the supplement of paper PMC9112550

Recorded shrunken log2 fold change for the following sequences
- Tested on: Escherichia coli TOP10;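 also: peptides expressed intracellularly from a pBAD plasmid library in pooled LB shake-flask culture, induced with 0.3% L-arabinose, DNA abundance read by NGS, three biological replicates, DESeq2 with apeglm shrinkage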
- assay-text: shrunken log2 fold change of peptide-encoding DNA abundance (4.5 h post-induction vs induction); higher = less antimicrobial activity (less host growth inhibition)
- protocol-conditions: time post-induction: 4.5 h; library: site-saturation at positions 5, 18, 19, 20
reported-property: shrunken log2 fold change

> print(dat)
     macromolecule.sequence          reported.property  recorded.value
 1  RRIRERPPRLPRPRPRPSGFPRP  shrunken log2 fold change          0.0785
 2  RRIRTRPPRLPRPRPRPGAFPRP  shrunken log2 fold change            2.41
 3  RRIRFRPPRLPRPRPRPLYEPRP  shrunken log2 fold change          -0.664
 4  RRIRDRPPRLPRPRPRPHDHPRP  shrunken log2 fold change         0.00042
 5  RRIRFRPPRLPRPRPRPIWLPRP  shrunken log2 fold change           -0.17
 6  RRIRNRPPRLPRPRPRPHKDPRP  shrunken log2 fold change          -0.737
 7  RRIRQRPPRLPRPRPRPSQPPRP  shrunken log2 fold change          -0.267
 8  RRIRVRPPRLPRPRPRPWFFPRP  shrunken log2 fold change          -0.148
 9  RRIRMRPPRLPRPRPRPPKEPRP  shrunken log2 fold change         -0.0231
10  RRIRCRPPRLPRPRPRPVLRPRP  shrunken log2 fold change           0.183
11  RRIRDRPPRLPRPRPRPRGCPRP  shrunken log2 fold change           0.786
12  RRIRCRPPRLPRPRPRPSTQPRP  shrunken log2 fold change          -0.495
13  RRIRHRPPRLPRPRPRPGDYPRP  shrunken log2 fold change          -0.212
14  RRIRERPPRLPRPRPRPWQAPRP  shrunken log2 fold change         0.00281
15  RRIRNRPPRLPRPRPRPKKIPRP  shrunken log2 fold change          -0.187
